Values from patent US20160002310A1

# method: Peptide stability in RPMI-1640 medium with 25% FBS, HPLC
# Format: in vitro ADME
# condition summary: bovine, culture medium (RPMI-1640) with 25% fetal bovine serum; culture medium, preliminary HPLC data
# Description: 50 μM peptides were incubated in RPMI-1640 medium with 25% FBS for the times indicated. Following ethanol precipitation of serum proteins, samples were analyzed by HPLC. […] 50 μM INGAP-PC and INGAP 19C were incubated in RPMI-1640 medium with 25% FBS for the times indicated. Following ethanol precipitation of serum proteins, samples were analyzed by HPLC. […] Degradation profiles of INGAP-P and INGAP-19 peptides in presence of serum were determined (FIG. 20). […]
No end group written: not given here.
value kind: half-life at 50 μM

Report half-life at 50 μM for IGLHDPSHGTLPNGS [INGAP-P, N′-IGLHDPSHGTLPNGS-C′] please.
240 to 360 min
